From: patent US20240189408A1

Assay: 3-NOP to adsorbent ratio study
Type: physicochemical
Settings: 3-NOP:Adsorbent 1:1.5, distilled water at 1% 3-NOP loading, 24 hr, HPLC
Measured Average Integrated Area of 3-NOP in solution of individual entries
endpoint: Average Integrated Area of 3-NOP in solution

>>> result("N=C(N)NCCC[C@H](N)C(=O)O [Arginine]")
2406.0
>>> result("N[C@@H](CCC(=O)O)C(=O)O [Glutamic acid]")
2445.9
>>> result("O=[N+]([O-])OCCCO [3-NOP, 3-nitrooxypropanol]")
2566.4
>>> result("NCCCC[C@H](N)C(=O)O [Lysine]")
2336.2
